Target: Protein-glutamine gamma-glutamyltransferase (Homo sapiens)
Sequence (P21980 whole entry): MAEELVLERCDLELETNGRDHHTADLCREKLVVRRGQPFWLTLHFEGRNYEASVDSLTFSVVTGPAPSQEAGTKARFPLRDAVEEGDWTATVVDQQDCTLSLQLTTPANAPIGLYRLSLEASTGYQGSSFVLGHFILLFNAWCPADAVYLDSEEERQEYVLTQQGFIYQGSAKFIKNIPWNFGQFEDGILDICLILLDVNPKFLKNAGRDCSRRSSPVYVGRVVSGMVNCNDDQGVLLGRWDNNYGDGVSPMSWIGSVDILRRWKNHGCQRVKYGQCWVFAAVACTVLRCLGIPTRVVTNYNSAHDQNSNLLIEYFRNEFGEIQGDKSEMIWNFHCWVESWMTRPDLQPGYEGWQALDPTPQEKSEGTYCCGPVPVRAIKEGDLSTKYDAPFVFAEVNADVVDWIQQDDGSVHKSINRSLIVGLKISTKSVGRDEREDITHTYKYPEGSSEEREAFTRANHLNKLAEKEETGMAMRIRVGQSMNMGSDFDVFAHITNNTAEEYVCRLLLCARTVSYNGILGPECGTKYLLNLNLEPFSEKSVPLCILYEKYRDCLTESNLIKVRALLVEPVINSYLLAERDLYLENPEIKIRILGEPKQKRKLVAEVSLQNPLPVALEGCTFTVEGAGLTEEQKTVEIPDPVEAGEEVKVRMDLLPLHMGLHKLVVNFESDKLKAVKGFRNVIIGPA
Test: Inhibition of human transglutaminase 2 using ZGBC as a substrate after 30 to 60 mins by fluorometric assay
Lab note: compare IC50 with 3000 nM, writing Y if less and N if equal or more.

Please state whether IC50 is below 3000 nM for "O=C(/C=C1/C(=O)N(CCCc2ccccc2)c2cccc(Cl)c21)c1cccnc1" Y

Please state whether IC50 is below 3000 nM for "O=C1Nc2cccc(Cl)c2/C1=C\C(=O)c1cccc(Cl)c1" Y

Please state whether IC50 is below 3000 nM for "O=C1Nc2cccc(Cl)c2/C1=C\C(=O)c1ccccn1" Y

Please state whether IC50 is below 3000 nM for "O=C1Nc2cccc(Br)c2/C1=C\C(=O)c1cccnc1" Y

Please state whether IC50 is below 3000 nM for "CC(=O)/C=C1/C(=O)Nc2ccccc21" N

----------
Biological target: Protein-glutamine gamma-glutamyltransferase (Homo sapiens, UniProt P21980)
Test: Inhibition of human transglutaminase 2 using Cbz-Gln-Gly as a substrate by GDH-coupled assay
reported-endpoint: IC50 (µM)
Form entry: value (µM) — number only.

Reference set (2 entries):
> print(dat)
                               given.smiles  reported.endpoint  endpoint.unit  assay.result
1  COC(=O)c1ccc(CN2C(=O)/C(=C/C(=O)c3cccnc3)c3c(Cl)cccc32)cc1               IC50             µM           1.2
2           CC(=O)/C=C1/C(=O)Nc2ccc(Cl)cc21               IC50             µM           4.3

# ---- query molecule ----
Lab note: need IC50 for "CC(=O)/C=C1/C(=O)Nc2c(Cl)cccc21" on Protein-glutamine gamma-glutamyltransferase (Homo sapiens, UniProt P21980), anyone have it? 4.7

----------
Target: Protein-glutamine gamma-glutamyltransferase (Homo sapiens)
Test: Inhibition of human transglutaminase 2 using ZGBC as a substrate after 30 to 60 mins by fluorometric assay
pIC50: −log10 of the molar value.
Criterion: pIC50 meeting or surpassing 5. Met: T. Not met: F.

Some solved entries appear below for comparison.
> print(dat)
                               given.smiles  label
1  COc1ccncc1C(=O)/C=C1/C(=O)Nc2cccc(Cl)c21      T
2  CC(C)N1C(=O)/C(=C/C(=O)c2cccnc2)c2c(Cl)cccc21      T
3           CC(=O)/C=C1/C(=O)Nc2c(Cl)cccc21      T

Is pIC50 at least 5? Consider "O=C1Nc2cccc(Cl)c2/C1=C\C(=O)c1cncc(Br)c1" T

Is pIC50 at least 5? Consider "O=C1Nc2ccc(Cl)cc2/C1=C\C(=O)c1cccnc1" T

Is pIC50 at least 5? Consider "O=C1Nc2cc(Cl)ccc2/C1=C\C(=O)c1cccnc1" F

Is pIC50 at least 5? Consider "O=C(/C=C1/C(=O)N(c2ccccc2)c2cccc(Cl)c21)c1cccnc1" T

Is pIC50 at least 5? Consider "O=C1Nc2ccc(Br)cc2/C1=C\C(=O)c1cccnc1" T

Is pIC50 at least 5? Consider "O=C1Nc2cccc(Cl)c2/C1=C\C(=O)c1ccccc1" F

Is pIC50 at least 5? Consider "COC(=O)c1ccc(CN2C(=O)/C(=C/C(=O)c3cccnc3)c3c(Cl)cccc32)cc1" T
